Measured melting point accompanies every entry in the list below.

1. CC(=O)c1ccc(OCc2cn(-c3ccc(Cl)cc3)nn2)cc1O [Compound 6b]; 157 to 159.1 °C

Next:
Prompt: Requested read-out: melting point. Entry: COc1ccc(-n2cc(COc3c(OC)cc(C(C)=O)cc3OC)nn2)cc1 [Compound 8a]
Completion: 99.5 to 102.3 °C

====

test system: Mytilus galloprovincialis plantigrade larvae; assay: Mussel larvae anti-settlement bioassay; assay type: in vivo; settings: Mytilus galloprovincialis, dose-response 3.125-200 μM; 95% CI in brackets; read-out: EC50 (µM), concentration that inhibited 50% of larval settlement
VALUE_KIND: EC50 (µM)
Report as a plain number; the unit µM is understood.

1) COc1cc(C(C)=O)cc(OC)c1OCc1cn(CCCO)nn1 [Compound 7a]; 40.1
2) COc1cc(C(C)=O)cc(OC)c1OCc1cn([C@H]2O[C@@H](CO)[C@H](O)[C@@H](O)[C@@H]2NC(C)=O)nn1 [Compound 9a]; 20.7

Next:
Prompt: Requested read-out: EC50. Entry: COc1cc(C(C)=O)cc(OC)c1OCc1cn(-c2ccc(Cl)cc2)nn1 [Compound 6a]
Completion: 28.9

====

Assay: Mussel larvae anti-settlement bioassay
Format: in vivo
Details: Mytilus galloprovincialis (mussel) plantigrade larvae, in vivo; mussel plantigrade larvae; highest concentration tested 200 μM; read-out: LC50 (µM), median lethal dose
Description: Mussel (Mytilus galloprovincialis) plantigrades were collected in juvenile aggregates during low neap tides at Memória beach, Matosinhos, Portugal (41°13′59″ N; 8°43′28″ W). […] Data from anti-settlement, antibacterial, and anti-microalgal bioassay were analyzed by one-way analysis of variance (ANOVA), followed by a multi-comparisons Dunnett’s test against negative control. […]
VALUE_KIND: LC50 at 15 h

Example entries and their recorded answers appear below.
1) COc1cc(C(C)=O)cc(OC)c1OCc1cn([C@H]2O[C@@H](CO)[C@H](O)[C@@H](O)[C@@H]2NC(C)=O)nn1; > 200 µM
2) COc1cc(C(C)=O)cc(OC)c1OCc1cn(CCCO)nn1; > 200 µM

Next:
Prompt: Requested read-out: LC50 at 15 h. Entry: "COc1cc(C(C)=O)cc(OC)c1OCc1cn(-c2ccc(Cl)cc2)nn1"
Completion: > 200 µM

====

Measured melting point accompanies every entry in the list below.

1) COc1ccc(-n2cc(COc3ccc(C(C)=O)c(O)c3)nn2)cc1 [Compound 8b]; 115.1 to 117.5 °C

Prompt: Requested read-out: melting point. Entry: CC(=O)c1ccc(OCc2cn(Cc3ccc(C#N)cc3)nn2)cc1O [Compound 3b]
Completion: 153.8 to 155.6 °C

Prompt: Requested read-out: melting point. Entry: CC(=O)c1ccc(OCc2cn(-c3ccc(F)cc3)nn2)cc1O [Compound 4b]
Completion: 145.9 to 148 °C

Prompt: Requested read-out: melting point. Entry: COc1cc(C(C)=O)cc(OC)c1OCc1cn(Cc2ccc(C#N)cc2)nn1 [Compound 3a]
Completion: 149.5 to 149.8 °C

Prompt: Requested read-out: melting point. Entry: CC(=O)c1ccc(OCc2cn(-c3ccc(Br)cc3)nn2)cc1O [Compound 5b]
Completion: 183.3 to 184.8 °C

Prompt: Requested read-out: melting point. Entry: COc1cc(C(C)=O)cc(OC)c1OCc1cn(-c2ccc(F)cc2)nn1 [Compound 4a]
Completion: 160 to 160.5 °C

Prompt: Requested read-out: melting point. Entry: COc1cc(C(C)=O)cc(OC)c1OCc1cn(-c2ccc(Br)cc2)nn1 [Compound 5a]
Completion: 159.1 to 160.4 °C

Prompt: Requested read-out: melting point. Entry: CC(=O)c1ccc(OCc2cn(CCCO)nn2)cc1O [Compound 7b]
Completion: 69.2 to 70.5 °C

// provenance: paper PMC8704891
